Test system: NCI-H460 lung
Test: NCI-60 one-dose screen, 48 h (100 = growth as untreated, 0 = no growth, -100 = all killed)
Details: 10 µM unless noted
Compounds without any hit were thinned out: in the full panel of roughly 83,000, 20% have a hit.
endpoint: growth (%)
Entry rule: numbers only, all in %.

COc1ccc(S(=O)(=O)N(Cc2ccc3c(c2)C=CC(C)(C)O3)c2ccccc2)cc1OC: 76.7

Problem: Which measured growth value corresponds to CN1CCCCC1C(C)(O)c1ccccc1 (centres undefined) ?
Result: 107

Problem: So what does the record say about growth for COC(=O)C12CC(NC(=O)c3csc([C@@H](C[C@H](C(C)C)N(C)C(=O)[C@@H](NC(=O)[C@H]4CCCCN4C)C(C)C)OC(C)=O)n3)(C1)C2 ?
Result: 5.4

Problem: Please look up its growth: COc1cc(/C=C\c2cc(OC)c(OC)c(OC)c2)cc(N/C=C\C(=O)c2cc(OC)c(OC)c(OC)c2)c1OC
Result: 17.3

====

Test system: OVCAR-3 ovarian
Experiment: NCI-60 one-dose screen, 48 h (100 = growth as untreated, 0 = no growth, -100 = all killed)
Conditions: 10 µM unless noted
This is part of a sample that, as a whole, favours compounds with a hit. Of some 83,000 tested, about 20% had one in any assay.
endpoint: growth (%)
Field format: number, assumed %, no unit text.

COC(=O)[C@@]1(C)CC[C@]2(C)CC[C@]3(C)C4=CC=C5C(=CC(=O)C(O)=C5C)[C@]4(C)CC[C@@]3(C)[C@@H]2C1: -92.1
C=CC12CCN(CC1)C(C(O)c1ccnc3ccc(OC)cc13)C2 (centres undefined): 93.7
O=C(O)CNC(=O)C(Cl)(Cl)Cl: 108

Moving on to the next molecule.
Problem: Form entry - test system: OVCAR-3 ovarian; read-out: growth; molecule: CC(=O)O[C@H](C[C@H](C(C)C)N(C)C(=O)[C@@H](NC(=O)[C@H]1CCCCN1C)C(C)C)c1nc(C(=O)N[C@@H](Cc2ccccc2)C[C@H](C)C(=O)O)c(CCOCc2ccccc2)s1
Result: -6.07

====

System: PC-3 prostate
Assay: NCI-60 one-dose screen, 48 h (100 = growth as untreated, 0 = no growth, -100 = all killed)
Details: 10 µM unless noted
About 83,000 compounds went through this panel and 20% of them were active in at least one assay; those are over-represented in the sample as a whole. Calls of active or inactive are those of the source. The calls were made as follows: active = growth percent below 10; inactive = the rest.
endpoint: growth

Example entries and their recorded answers appear below.
CC12CCC3C(C=CC4=C(N)C(=O)CCC43C)C1CCC2=O (centres undefined): 46.5% (inactive)
Brc1ccc2c(c1)c(-c1nc(-c3c[nH]c4ncccc34)cs1)cn2CCN1CCOCC1: 30.3% (inactive)
COC(=O)C1CCC(NC(=O)c2csc([C@@H](C[C@H](C(C)C)N(C)C(=O)[C@@H](NC(=O)[C@H]3CCCCN3C)C(C)C)OC(C)=O)n2)CC1 (some centres undefined): 28.9% (inactive)
O=C1C(N2CC2)=C(N2CC2)C(=O)C(N2CC2)=C1N1CC1: 7.53% (active)
Nc1c(F)cc(-c2nc3cc(F)ccc3[se]2)cc1F: 72.1% (inactive)

// next item, growth requested
Problem: Please give the measured growth for this molecule: CCOC(=O)N1CC1
Result: 88.1% (inactive)

====

Test system: ACHN renal
Assay: NCI-60 one-dose screen, 48 h
Conditions: 10 µM unless noted
This is part of a sample that, as a whole, favours compounds with a hit. Of some 83,000 tested, about 20% had one in any assay. The source made the active and inactive calls. The calls were made as follows: active = growth percent below 10; inactive = the rest.
The categories you may choose from are Yes (active), No (inactive)

Problem: What is the recorded call for this compound in the test? C=CCn1cc(C=C2C(=O)N(C)C(=O)N(C)C2=O)c2ccccc21
Result: No

Problem: Assay outcome for C#Cc1ccc2c(c1)C(c1ccccc1)=NCC(=O)N2C : what was it?
Result: No

Problem: For this compound, state the assay outcome: CCOC(=O)[C@@H](C)C[C@H](Cc1ccccc1)NC(=O)c1csc([C@@H](C[C@H](C(C)C)N(C)C(=O)[C@H](CCC(C)C)NC(=O)[C@H]2CCCCN2C)OC(C)=O)n1
Result: Yes

Problem: # fetch the recorded call for Cc1ccc(C(Cc2ccccc2)NCCO)cc1 (centres undefined) here
Result: No

Problem: Identify the outcome logged in this assay for the compound shown: COc1ccc(NC([Se])=NC23CC4CC(CC(C4)C2)C3)cc1
Result: Yes

Problem: Given CC(=O)O[C@H](C[C@H](C(C)C)N(C)C(=O)[C@@H](NC(=O)[C@H]1CCCN1C)C(C)C)c1nc(C(=O)N[C@@H](Cc2ccccc2)C[C@H](C)C(=O)O)c(C)s1 , state the outcome it received in this test.
Result: No

Problem: What classification did CC(=O)OC1CCC2C3CCC4=C/C(=N/OC(=O)c5ccc(N(CCCl)CCCl)cc5)CCC4(C)C3CC(C)C12 (centres undefined) end up with in this test?
Result: No

Problem: GET /call?item= Cn1cc(-c2csc(-c3cn(CCN4CCOCC4)c4ccc(F)cc34)n2)c2cccnc21 returns the recorded outcome of this test.
Result: No

Problem: Hi team, can someone confirm the assay call for COC1=CC(=O)O[C@@H](/C=C/c2ccc3c(c2)OCO3)C1 ?
Result: No

====

Test system: M14 melanoma
Assay: NCI-60 one-dose screen, 48 h
Details: 10 µM unless noted
About 83,000 compounds went through this panel and 20% of them were active in at least one assay; those are over-represented in the sample as a whole. Activity calls are given as the source filed them. The calls were made as follows: active = growth percent below 10; inactive = the rest.
Just give me one of these, please: label 1 (active), label 0 (inactive)

Below, 10 compounds whose answers are already recorded.
Cc1cc(N(CCCl)CCCl)ccc1C=Nc1cccnc1: label 0
Cc1ccc(C(Cc2ccccc2)NCCO)cc1 (stereo unspecified): label 0
C[C@]12CC[C@H]3[C@@H](CC[C@]4(O)C[C@@H](O[C@@H]5O[C@H](CO)[C@@H](O[C@@H]6OC[C@@H](O)[C@H](O)[C@H]6O)[C@H](O)[C@H]5O)CC[C@]34C=O)[C@@]1(O)CC[C@@H]2C1=CC(=O)OC1: label 0
O=NN1CCCc2cccc(O)c21: label 0
[Cl][Hg][c]1cc[c]([Hg][Cl])o1: label 0
CCC[CH2][Sn]([CH2]CCC)([CH2]CCC)[O]c1ccc(Cl)cc1Cl: label 1
O=C1C(=Cc2cn(Cc3ccccc3)c3ccccc23)C(=O)N(Cc2ccccc2)C(=O)N1Cc1ccccc1: label 0
CCOC(=S)S[C@H]1C[C@@H]2[C@H](CC[C@]3(C)C(=O)CC[C@@H]23)[C@@]2(C)CCC(=O)C=C12: label 0
ClCCN(CCCl)c1ccc(/C=N/Nc2ncnc3nc[nH]c23)cc1: label 0
COC(=O)[C@@]1(C)CC[C@]2(C)CC[C@]3(C)C4=CC=C5C(=CC(=O)C(O)=C5C)[C@]4(C)CC[C@@]3(C)[C@@H]2C1: label 1

Now for another entry.
Problem: Please share the test call associated with Clc1cc(N2CC2)nc(N2CC2)n1 .
Result: label 0

====

Test system: 786-0 renal
Test: NCI-60 one-dose screen, 48 h
Conditions: 10 µM unless noted
This is part of a sample that, as a whole, favours compounds with a hit. Of some 83,000 tested, about 20% had one in any assay. Activity calls are given as the source filed them. How the source made its calls: active means growth percent below 10; inactive means the rest.
Entry note: the call must match one of active, inactive

Cc1ccc(C(Cc2ccccc2)NCCO)cc1 (stereo not drawn): inactive
CC(=O)O[C@H](C[C@H](C(C)C)N(C)C(=O)[C@@H](NC(=O)[C@H]1CCCCN1C)C(C)C)c1nc(C(=O)N[C@@H](Cc2ccccc2)C[C@H](C)C(=O)O)c(C(C)C)s1: inactive

Problem: Hi team, can someone confirm the assay call for Fc1ccc2c(c1)c(-c1nc(-c3c[nH]c4ncccc34)cs1)cn2CCCCN1CCCCC1 ?
Result: active

Problem: Which outcome did this test record for the molecule C=C(C)[C@@]12OC3(/C=C/C=C/CCCCC)O[C@@H]1[C@@H]1[C@@H]4O[C@]4(CO)[C@@H](O)[C@]4(O)C(=O)C(C)=C[C@H]4[C@@]1(O3)[C@H](C)[C@H]2OC(=O)c1ccccc1 ?
Result: inactive

Problem: Check the results log: what was the call for COc1cc2c(=O)n(C3CCCCCCC3)c3c4cc[nH]c4ncc3c2cc1OC ?
Result: inactive

Problem: Check the results log: what was the call for COc1ccc2c(c1)c(C1(O)CC(CSC#N)OC1=O)cn2C(=O)c1ccc(Cl)cc1 (stereo not drawn) ?
Result: inactive

Problem: Would you mind telling me which call this test gave C=CCCCN=C=S ?
Result: inactive

Problem: Record lookup: outcome of this test for CCC1CC(O)c2c(O)c3c(c(O)c2C1O)C(=O)c1cccc(O)c1C3=O (stereo not drawn) (tested in a mixture with another compound) ?
Result: active
